target system: T1, recombinant biotinylated human PAR2 extracellular domain (residues 1-75), N-terminal AviTag, C-terminal Flag … (human, UniProt P55085 26-75, biotin on the AviTag (enzymatic biotinylation))
T1 construct: also called Bio-human-PAR2 ECD; human PAR2 ECD; not shown: N-terminal AviTag (Avidity LLC); C-terminal Flag and poly Histidine tags
T1 sequence (P55085 26-75): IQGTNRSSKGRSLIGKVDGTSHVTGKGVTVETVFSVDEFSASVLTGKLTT
protocol summary: HTRF competition with Dylight650-Par0067 IgG, pH 6.0, IgG
recorded endpoint: pIC50
Reminder that pIC50 is minus the log10 of a molar concentration.

Exam item: Sample PaB670048 IgG (antibody, V domains shown, IgG1-TM (L234F, L235E, P331S), human lambda light chain; also called ZZ1KX4-E11) VH: EVQLLESGGGLVQPGGSLRLSCAASGFTFSSYAMNWVRQAPGKGLEWVSTISYSGSLISYADSVKGRFTISRDNSKNTLYLQMNSLRAEDTAVYYCARIHHDPMDHWGQGTLVTVSS VL: SIELTQPPSVSVSPGQTASITCSGDNLGKKYVQWYQQKPGQSPVLVIYDDSNRPSGIPERFSGSNSGNTATLTISGTQAMDEADYYCQTWDGNPTTGETNVFGGGTKLTVL — what was its pIC50?
Marked response: 7.32

Exam item: Requested field: pIC50. Item: PaB670084 IgG (antibody, V domains shown, IgG1-TM (L234F, L235E, P331S), human lambda light chain; also called ZZ1PXA-A05) VH: EVQLLESGGGLVQPGGSLRLSCAASGFTFSSYAMNWVRQAPGKGLEWVSTISHSGHLIHHADSHKGRFTISRDNSKNTLYLQMNSLRAEDTAVYYCARINNDPMDVWGQGTLVTVSS VL: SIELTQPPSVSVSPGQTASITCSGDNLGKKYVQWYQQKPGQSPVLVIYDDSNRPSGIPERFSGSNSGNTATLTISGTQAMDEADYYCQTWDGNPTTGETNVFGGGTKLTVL
Marked response: 7.19

Exam item: Using the record for PaB670045 IgG (antibody, V domains shown, IgG1-TM (L234F, L235E, P331S), human lambda light chain; also called ZZ1KX3-F01) VH: EVQLLESGGGLVQPGGSLRLSCAASGFTFSSYAMNWVRQAPGKGLEWVSTISYSGSLISYADSVKGRFTISRDNSKNTLYLQMNSLRAEDTAVYYCARIHHDPMDVWGQGTLVTVSS VL: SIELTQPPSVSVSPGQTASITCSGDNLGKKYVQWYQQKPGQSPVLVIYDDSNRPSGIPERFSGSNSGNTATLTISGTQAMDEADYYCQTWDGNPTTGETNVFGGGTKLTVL , report its pIC50.
Marked response: 7.59
